Listed here: items and their measured pIC50.
biological target: His6-Flag-TEV-NLRP3 (134-1036) (Homo sapiens); construct: fused on or other part: N-terminal His6 tag, Flag tag and TEV cleavage site; assay: NLRP3 fluorescence polarization (FP) binding assay, competition with probe NP3-301; conditions: competition with NP3-301 for binding to NLRP3 (134-1036), 30 nM protein
Sequence (Q96P20 134-1036 limits assumed): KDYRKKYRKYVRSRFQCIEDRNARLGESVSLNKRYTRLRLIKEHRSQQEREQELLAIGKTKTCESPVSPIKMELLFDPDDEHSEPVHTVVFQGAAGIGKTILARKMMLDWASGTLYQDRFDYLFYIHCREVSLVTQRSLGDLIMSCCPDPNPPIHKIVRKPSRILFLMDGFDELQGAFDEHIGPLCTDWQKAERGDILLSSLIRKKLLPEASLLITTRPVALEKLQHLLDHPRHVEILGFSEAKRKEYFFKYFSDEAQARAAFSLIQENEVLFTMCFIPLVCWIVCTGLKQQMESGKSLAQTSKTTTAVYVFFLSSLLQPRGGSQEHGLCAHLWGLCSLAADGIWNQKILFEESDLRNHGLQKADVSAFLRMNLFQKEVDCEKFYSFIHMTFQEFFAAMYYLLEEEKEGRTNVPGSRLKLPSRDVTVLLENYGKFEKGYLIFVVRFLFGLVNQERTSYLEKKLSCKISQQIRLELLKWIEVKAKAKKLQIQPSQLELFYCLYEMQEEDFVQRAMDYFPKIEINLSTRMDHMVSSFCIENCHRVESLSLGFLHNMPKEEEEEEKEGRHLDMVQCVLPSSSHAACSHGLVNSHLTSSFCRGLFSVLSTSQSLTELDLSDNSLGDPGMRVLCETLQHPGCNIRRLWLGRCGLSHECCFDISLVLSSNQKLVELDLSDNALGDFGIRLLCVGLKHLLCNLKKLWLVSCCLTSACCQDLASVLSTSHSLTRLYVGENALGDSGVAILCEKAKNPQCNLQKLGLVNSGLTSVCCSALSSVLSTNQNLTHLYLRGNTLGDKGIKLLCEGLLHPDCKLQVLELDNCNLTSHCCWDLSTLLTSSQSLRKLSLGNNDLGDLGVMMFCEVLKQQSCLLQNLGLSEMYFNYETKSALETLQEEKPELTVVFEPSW
pIC50: −log10 of the molar value.

Mol smiles | Result value
CCN1CCC[C@H](n2ccc3cc(-c4c(C)cc(C(F)(F)F)cc4O)nnc32)C1 | 6.30 to 7.00
CCS(=O)(=O)N1CCOC[C@H]1CNc1nc2nc(-c3c(C)cc(C(F)(F)F)cc3O)ccc2o1 | ≥ 7.00
Cc1cc(C(F)(F)F)cc(O)c1-c1cc2ccn(C3CCS(=O)(=O)CC3)c2nn1 | 6.30 to 7.00

# ---- query molecule ----
# get_value(readout='pIC50', item= Cc1cc(C(F)(F)F)cc(O)c1-c1cc(C)n2nc(N3CCOCC3)nc2n1 )
≥ 7.00
